system: OC43 virus; test: microbe, parasite or virus in culture; type: cell-based; conditions: Betacoronavirus 1, OC43, Huh-7, read-out: Antiviral OC43 EC50 (μM)
MEASURED ATTRIBUTE: EC50

## Input Given C[C@@H]1C[C@@H](NC(=O)c2cc(=O)[nH]c3c(F)c(F)ccc23)CN1c1c(C(=O)N2CCOCC2)cc(C#N)cc1C(F)(F)F [Compound 31] , state its recorded EC50.
## Output 0.141 µM

## Input Any idea what its EC50 is? The molecule is COc1cccc2[nH]c(=O)cc(C(=O)N[C@@H]3CCN(c4c(C(=O)N5CCOCC5)cc(C)cc4C4CC4)C3)c12 [Compound 81]
## Output 0.013 µM

## Input What does the data say about its EC50? Entry: N#Cc1cc(C(=O)N2CCOCC2)c(N2CC[C@@H](NC(=O)c3c(F)c(=O)[nH]c4c(F)cccc34)C2)c(C(F)(F)F)c1 [Compound 5]
## Output 0.047 µM

## Input Given Cc1cc(C(=O)N2CCOCC2)c(N2C[C@H](NC(=O)c3cc(=O)[nH]c4c(F)cc(F)cc34)CC2=O)c(C2CC2)c1 [Compound 74] , state its recorded EC50.
## Output 0.429 µM

## Input Can you share its EC50? I mean this molecule: Cc1cc(C(=O)N2CCOCC2)c(N2C[C@H](NC(=O)c3cc(=O)[nH]c4c(F)c(F)ccc34)C[C@H]2C)c(C2CC2)c1 [Compound 83]
## Output 0.023 µM

## Input Entry N#Cc1cc(C(=O)N2CCOCC2)c(N2C[C@H](NC(=O)c3cc(=O)[nH]c4c(F)c(F)ccc34)CC2=O)c(C(F)(F)F)c1 [Compound 34] : reported EC50 = ?
## Output 7.32 µM

* * *

target: MERS Mpro (Middle East respiratory syndrome-related coronavirus (isolate United Kingdom/H123990006/2012) (MERS-CoV) (Betacoronavirus England 1), UniProt K9N7C7); assay: biochemical
Sequence (K9N7C7 3248-3553 limits assumed): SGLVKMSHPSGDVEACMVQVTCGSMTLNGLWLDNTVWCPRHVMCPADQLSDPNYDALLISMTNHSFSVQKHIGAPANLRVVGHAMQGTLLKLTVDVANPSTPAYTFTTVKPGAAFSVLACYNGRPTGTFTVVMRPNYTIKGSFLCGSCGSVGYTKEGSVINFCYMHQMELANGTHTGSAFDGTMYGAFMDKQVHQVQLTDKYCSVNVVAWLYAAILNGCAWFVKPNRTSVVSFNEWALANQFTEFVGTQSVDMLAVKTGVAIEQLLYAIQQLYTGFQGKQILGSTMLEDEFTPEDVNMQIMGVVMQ
Exercise: for every item that follows, state its recorded EC50.
Write down the numeric answer in nM and omit the unit.

## Input I am curious: what EC50 value has been reported for N#Cc1cc(C(=O)N2CCOCC2)c(N2CC[C@@H](NC(=O)c3cc(=O)[nH]c4c(F)cccc34)C2)c(C2CC2)c1 [Compound 40] ?
## Output 0.89

## Input Field request: EC50 | item: Cc1cc(C(=O)N[C@@H]2CCN(c3c(C(=O)N4CCOCC4)cc(C#N)cc3C(F)(F)F)C2)c(F)c(=O)[nH]1 [Compound 10]
## Output 1.5

## Input Any idea what its EC50 is? The compound is Cc1cc(C(=O)N[C@@H]2CCN(c3c(C(=O)NCC(C)C)cc(C#N)cc3C(F)(F)F)C2)cc(=O)[nH]1 [Compound 29]
## Output 8.85

## Input Fill in the blank: the reported EC50 of C[C@@H]1C[C@@H](NC(=O)c2cc(=O)[nH]c3c(F)cccc23)CN1c1c(C(=O)N2CCOCC2)cc(C#N)cc1C(F)(F)F [Compound 30] is ____.
## Output 1.04

* * *

Give pEC50 for every item shown.
target: MERS Mpro (Middle East respiratory syndrome-related coronavirus (isolate United Kingdom/H123990006/2012) (MERS-CoV) (Betacoronavirus England 1), UniProt K9N7C7); experiment: biochemical
Reminder that pEC50 is minus the log10 of a molar concentration.

## Input If you can, please state the reported pEC50 value of Cc1cc(C(=O)N2CCOCC2)c(N2CC[C@@H](NC(=O)c3cc(=O)[nH]c4c(F)cccc34)C2)c(C2CC2)c1 [Compound 45] .
## Output 9.15

## Input Given O=C(N[C@@H]1CCN(c2c(C(=O)N3CC4(COC4)C3)cc(Br)cc2C(F)(F)F)C1)c1cc(=O)[nH]c2c(F)cccc12 [Compound 73] , state its recorded pEC50.
## Output 8.77

## Input Item O=C(N[C@@H]1CCN(c2c(C(=O)N3CCOCC3)cc(Br)cc2C(F)(F)F)C1)c1cc(=O)[nH]c2ccccc12 [Compound 56] has what recorded pEC50?
## Output 9.04

## Input # get_value(readout='pEC50', item= O=C(N[C@@H]1CCN(c2c(C(=O)N3CCOCC3)cc(F)cc2C2CC2)C1)c1cc(=O)[nH]c2c(F)cccc12 [Compound 46] )
## Output 8.76

## Input Which value of pEC50 has been reported for O=C(N[C@@H]1CCN(c2c(C(=O)N3CCOCC3)cc(Br)cc2C(F)(F)F)C1)c1c(F)c(=O)[nH]c2c(F)cccc12 [Compound 48] in the records?
## Output 9.05

## Input GET /values?readout=pEC50&item= O=C(N[C@@H]1CCN(c2c(C(=O)N3CC(F)(F)C3)cc(Br)cc2C(F)(F)F)C1)c1cc(=O)[nH]c2c(F)cccc12 [Compound 70]
## Output 8.71

## Input Find the recorded pEC50 belonging to N#Cc1cc(C(=O)N2CCOCC2)c(N2CC[C@@H](NC(=O)c3c(F)c(=O)[nH]c4ccccc34)C2)c(C(F)(F)F)c1 [Compound 6] and report it.
## Output 8.60

## Input Form field: reported pEC50 of N#Cc1cc(C(=O)N2CCOCC2)c(N2CC[C@@H](NC(=O)c3cc(=O)[nH]c4c(F)c(F)ccc34)C2)c(C(F)(F)F)c1 [Compound 8]
## Output 8.83

## Input Given the molecule N#Cc1cc(C(=O)N2CCC(F)(F)C2)c(N2CC[C@@H](NC(=O)c3cc(=O)[nH]c4c(F)cccc34)C2)c(C(F)(F)F)c1 [Compound 21] , what is its reported pEC50?
## Output 8.89

## Input I am curious: what pEC50 value has been reported for O=C(N[C@@H]1CCN(c2c(C(=O)N3CCCCC3)cc(Br)cc2C(F)(F)F)C1)c1cc(=O)[nH]c2c(F)cccc12 [Compound 64] ?
## Output 8.86

Data credit: patent US20240158368A1
